- Tested on: Factor X, P00742
- Sequence (P00742 whole entry, looked up): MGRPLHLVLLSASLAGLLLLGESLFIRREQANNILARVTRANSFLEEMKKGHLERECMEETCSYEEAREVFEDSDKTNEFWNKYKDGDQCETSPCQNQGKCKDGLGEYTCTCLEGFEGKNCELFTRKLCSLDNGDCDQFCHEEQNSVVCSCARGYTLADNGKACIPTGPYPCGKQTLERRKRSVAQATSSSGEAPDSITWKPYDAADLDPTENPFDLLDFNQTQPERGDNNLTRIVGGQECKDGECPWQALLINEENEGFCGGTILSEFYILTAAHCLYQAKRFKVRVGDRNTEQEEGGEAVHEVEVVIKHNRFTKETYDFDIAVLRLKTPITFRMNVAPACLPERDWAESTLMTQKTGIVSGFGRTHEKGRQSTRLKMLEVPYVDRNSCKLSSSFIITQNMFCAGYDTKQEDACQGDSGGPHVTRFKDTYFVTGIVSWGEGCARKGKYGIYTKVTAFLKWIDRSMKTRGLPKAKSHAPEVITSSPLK
Measured property: % of WT kcat/KM (%)

>>> recorded_value("FIXa D104N/K106S/Y155F/K247N/N249S/N260S (protein) chain 1: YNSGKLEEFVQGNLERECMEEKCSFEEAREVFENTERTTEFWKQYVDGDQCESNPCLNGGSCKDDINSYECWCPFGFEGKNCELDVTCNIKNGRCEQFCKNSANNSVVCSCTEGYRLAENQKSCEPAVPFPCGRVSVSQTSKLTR chain 2: VVGGEDAKPGQFPWQVVLNGKVDAFCGGSIVNEKWIVTAAHCVETGVKITVVAGEHNIEETEHTEQNRSVIRIIPHHNYSAAINKYNHDIALLELDEPLVLNSYVTPICIADKEYTNIFLKFGSGYVSGWGRVFHKGRSALVLQYLRVPLVDRATCLRSTKFTIYNNMFCAGFHEGGRDSCQGDSGGPHVTEVEGTSFLTGIISWGEECAMKGKYGIYTKVSRYVNWIKEKTKLT")
18
